Source of measurements: BigSolDB 2.1

- test_parameters: in benzene, 303.35 K
value_type: solubility (mole fraction)
# respond with the number and nothing more

Input: Data request, read-out solubility (mole fraction), for O=P1(C(Nc2ccccc2)c2ccccc2)OCC2(CO1)COP(=O)(C(Nc1ccccc1)c1ccccc1)OC2 (stereo unspecified)
Output: 9.8e-05

====

- test_parameters: in isopropanol, 287.95 K
value_type: solubility (mole fraction)
# respond with the number and nothing more

Input: Data request, read-out solubility (mole fraction), for O=P1(C(Nc2ccccc2)c2ccccc2)OCC2(CO1)COP(=O)(C(Nc1ccccc1)c1ccccc1)OC2 (stereo unspecified)
Output: 0.000131

====

- test_parameters: in 1,4-dioxane, 328.25 K
value_type: solubility (mole fraction)
# respond with the number and nothing more

Input: Data request, read-out solubility (mole fraction), for O=P1(C(Nc2ccccc2)c2ccccc2)OCC2(CO1)COP(=O)(C(Nc1ccccc1)c1ccccc1)OC2 (stereo unspecified)
Output: 0.000332

====

- test_parameters: in acetonitrile, 313.2 K
value_type: solubility (mole fraction)
# respond with the number and nothing more

Input: Data request, read-out solubility (mole fraction), for O=P1(C(Nc2ccccc2)c2ccccc2)OCC2(CO1)COP(=O)(C(Nc1ccccc1)c1ccccc1)OC2 (stereo unspecified)
Output: 8.7e-05

====

- test_parameters: in THF, 303.15 K
value_type: solubility (mole fraction)
# respond with the number and nothing more

Input: Data request, read-out solubility (mole fraction), for O=P1(C(Nc2ccccc2)c2ccccc2)OCC2(CO1)COP(=O)(C(Nc1ccccc1)c1ccccc1)OC2 (stereo unspecified)
Output: 0.0053

====

- test_parameters: in ethanol, 338.25 K
value_type: solubility (mole fraction)
# respond with the number and nothing more

Input: Data request, read-out solubility (mole fraction), for O=P1(C(Nc2ccccc2)c2ccccc2)OCC2(CO1)COP(=O)(C(Nc1ccccc1)c1ccccc1)OC2 (stereo unspecified)
Output: 0.000285

====

- test_parameters: in isopropanol, 293.45 K
value_type: solubility (mole fraction)
# respond with the number and nothing more

Input: Data request, read-out solubility (mole fraction), for O=P1(C(Nc2ccccc2)c2ccccc2)OCC2(CO1)COP(=O)(C(Nc1ccccc1)c1ccccc1)OC2 (stereo unspecified)
Output: 0.000156

====

- test_parameters: in 1,4-dioxane, 303.15 K
value_type: solubility (mole fraction)
# respond with the number and nothing more

Input: Data request, read-out solubility (mole fraction), for O=P1(C(Nc2ccccc2)c2ccccc2)OCC2(CO1)COP(=O)(C(Nc1ccccc1)c1ccccc1)OC2 (stereo unspecified)
Output: 0.000146

====

- test_parameters: in 1,4-dioxane, 288.35 K
value_type: solubility (mole fraction)
# respond with the number and nothing more

Input: Data request, read-out solubility (mole fraction), for O=P1(C(Nc2ccccc2)c2ccccc2)OCC2(CO1)COP(=O)(C(Nc1ccccc1)c1ccccc1)OC2 (stereo unspecified)
Output: 8.4e-05

====

- test_parameters: in toluene, 328.25 K
value_type: solubility (mole fraction)
# respond with the number and nothing more

Input: Data request, read-out solubility (mole fraction), for O=P1(C(Nc2ccccc2)c2ccccc2)OCC2(CO1)COP(=O)(C(Nc1ccccc1)c1ccccc1)OC2 (stereo unspecified)
Output: 0.00494

====

- test_parameters: in 1,4-dioxane, 313.45 K
value_type: solubility (mole fraction)

Input: Data request, read-out solubility (mole fraction), for O=P1(C(Nc2ccccc2)c2ccccc2)OCC2(CO1)COP(=O)(C(Nc1ccccc1)c1ccccc1)OC2 (stereo unspecified)
Output: 0.000202

====

- test_parameters: in THF, 313.45 K
value_type: solubility (mole fraction)

Input: Data request, read-out solubility (mole fraction), for O=P1(C(Nc2ccccc2)c2ccccc2)OCC2(CO1)COP(=O)(C(Nc1ccccc1)c1ccccc1)OC2 (stereo unspecified)
Output: 0.00645

====

- test_parameters: in toluene, 333.25 K
value_type: solubility (mole fraction)
# respond with the number and nothing more

Input: Data request, read-out solubility (mole fraction), for O=P1(C(Nc2ccccc2)c2ccccc2)OCC2(CO1)COP(=O)(C(Nc1ccccc1)c1ccccc1)OC2 (stereo unspecified)
Output: 0.00542

====

- test_parameters: in acetone, 323.25 K
value_type: solubility (mole fraction)
# respond with the number and nothing more

Input: Data request, read-out solubility (mole fraction), for O=P1(C(Nc2ccccc2)c2ccccc2)OCC2(CO1)COP(=O)(C(Nc1ccccc1)c1ccccc1)OC2 (stereo unspecified)
Output: 0.000205

====

- test_parameters: in toluene, 293.25 K
value_type: solubility (mole fraction)
# respond with the number and nothing more

Input: Data request, read-out solubility (mole fraction), for O=P1(C(Nc2ccccc2)c2ccccc2)OCC2(CO1)COP(=O)(C(Nc1ccccc1)c1ccccc1)OC2 (stereo unspecified)
Output: 0.0015

====

- test_parameters: in toluene, 318.65 K
value_type: solubility (mole fraction)

Input: Data request, read-out solubility (mole fraction), for O=P1(C(Nc2ccccc2)c2ccccc2)OCC2(CO1)COP(=O)(C(Nc1ccccc1)c1ccccc1)OC2 (stereo unspecified)
Output: 0.00388

====

- test_parameters: in benzene, 308.45 K
value_type: solubility (mole fraction)
# respond with the number and nothing more

Input: Data request, read-out solubility (mole fraction), for O=P1(C(Nc2ccccc2)c2ccccc2)OCC2(CO1)COP(=O)(C(Nc1ccccc1)c1ccccc1)OC2 (stereo unspecified)
Output: 0.000123

====

- test_parameters: in 1,2-dichloroethane, 288.25 K
value_type: solubility (mole fraction)
# respond with the number and nothing more

Input: Data request, read-out solubility (mole fraction), for O=P1(C(Nc2ccccc2)c2ccccc2)OCC2(CO1)COP(=O)(C(Nc1ccccc1)c1ccccc1)OC2 (stereo unspecified)
Output: 0.000127

====

- test_parameters: in acetone, 313.25 K
value_type: solubility (mole fraction)
# respond with the number and nothing more

Input: Data request, read-out solubility (mole fraction), for O=P1(C(Nc2ccccc2)c2ccccc2)OCC2(CO1)COP(=O)(C(Nc1ccccc1)c1ccccc1)OC2 (stereo unspecified)
Output: 0.000164

====

- test_parameters: in toluene, 323.25 K
value_type: solubility (mole fraction)
# respond with the number and nothing more

Input: Data request, read-out solubility (mole fraction), for O=P1(C(Nc2ccccc2)c2ccccc2)OCC2(CO1)COP(=O)(C(Nc1ccccc1)c1ccccc1)OC2 (stereo unspecified)
Output: 0.00449

====

- test_parameters: in isopropanol, 328.55 K
value_type: solubility (mole fraction)

Input: Data request, read-out solubility (mole fraction), for O=P1(C(Nc2ccccc2)c2ccccc2)OCC2(CO1)COP(=O)(C(Nc1ccccc1)c1ccccc1)OC2 (stereo unspecified)
Output: 0.000348

====

- test_parameters: in acetic acid, 328.25 K
value_type: solubility (mole fraction)
# respond with the number and nothing more

Input: Data request, read-out solubility (mole fraction), for O=P1(C(Nc2ccccc2)c2ccccc2)OCC2(CO1)COP(=O)(C(Nc1ccccc1)c1ccccc1)OC2 (stereo unspecified)
Output: 0.000348

====

- test_parameters: in acetonitrile, 338.25 K
value_type: solubility (mole fraction)
# respond with the number and nothing more

Input: Data request, read-out solubility (mole fraction), for O=P1(C(Nc2ccccc2)c2ccccc2)OCC2(CO1)COP(=O)(C(Nc1ccccc1)c1ccccc1)OC2 (stereo unspecified)
Output: 0.000194

====

- test_parameters: in benzene, 293.15 K
value_type: solubility (mole fraction)
# respond with the number and nothing more

Input: Data request, read-out solubility (mole fraction), for O=P1(C(Nc2ccccc2)c2ccccc2)OCC2(CO1)COP(=O)(C(Nc1ccccc1)c1ccccc1)OC2 (stereo unspecified)
Output: 6.4e-05

====

- test_parameters: in acetic acid, 333.45 K
value_type: solubility (mole fraction)
# respond with the number and nothing more

Input: Data request, read-out solubility (mole fraction), for O=P1(C(Nc2ccccc2)c2ccccc2)OCC2(CO1)COP(=O)(C(Nc1ccccc1)c1ccccc1)OC2 (stereo unspecified)
Output: 0.000406

====

- test_parameters: in benzene, 323.35 K
value_type: solubility (mole fraction)
# respond with the number and nothing more

Input: Data request, read-out solubility (mole fraction), for O=P1(C(Nc2ccccc2)c2ccccc2)OCC2(CO1)COP(=O)(C(Nc1ccccc1)c1ccccc1)OC2 (stereo unspecified)
Output: 0.000199

====

- test_parameters: in isopropanol, 303.25 K
value_type: solubility (mole fraction)

Input: Data request, read-out solubility (mole fraction), for O=P1(C(Nc2ccccc2)c2ccccc2)OCC2(CO1)COP(=O)(C(Nc1ccccc1)c1ccccc1)OC2 (stereo unspecified)
Output: 0.000209

====

- test_parameters: in 1,2-dichloroethane, 323.45 K
value_type: solubility (mole fraction)

Input: Data request, read-out solubility (mole fraction), for O=P1(C(Nc2ccccc2)c2ccccc2)OCC2(CO1)COP(=O)(C(Nc1ccccc1)c1ccccc1)OC2 (stereo unspecified)
Output: 0.000219

====

- test_parameters: in acetonitrile, 308.25 K
value_type: solubility (mole fraction)
# respond with the number and nothing more

Input: Data request, read-out solubility (mole fraction), for O=P1(C(Nc2ccccc2)c2ccccc2)OCC2(CO1)COP(=O)(C(Nc1ccccc1)c1ccccc1)OC2 (stereo unspecified)
Output: 7.6e-05

====

- test_parameters: in isopropanol, 318.15 K
value_type: solubility (mole fraction)
# respond with the number and nothing more

Input: Data request, read-out solubility (mole fraction), for O=P1(C(Nc2ccccc2)c2ccccc2)OCC2(CO1)COP(=O)(C(Nc1ccccc1)c1ccccc1)OC2 (stereo unspecified)
Output: 0.000289
